TEST TARGET: T1, EsCas13d, nuclease-dead (Eubacterium siraeum, UniProt B0MS50, R295A;H300A;R849A;H854A)
T1 sequence: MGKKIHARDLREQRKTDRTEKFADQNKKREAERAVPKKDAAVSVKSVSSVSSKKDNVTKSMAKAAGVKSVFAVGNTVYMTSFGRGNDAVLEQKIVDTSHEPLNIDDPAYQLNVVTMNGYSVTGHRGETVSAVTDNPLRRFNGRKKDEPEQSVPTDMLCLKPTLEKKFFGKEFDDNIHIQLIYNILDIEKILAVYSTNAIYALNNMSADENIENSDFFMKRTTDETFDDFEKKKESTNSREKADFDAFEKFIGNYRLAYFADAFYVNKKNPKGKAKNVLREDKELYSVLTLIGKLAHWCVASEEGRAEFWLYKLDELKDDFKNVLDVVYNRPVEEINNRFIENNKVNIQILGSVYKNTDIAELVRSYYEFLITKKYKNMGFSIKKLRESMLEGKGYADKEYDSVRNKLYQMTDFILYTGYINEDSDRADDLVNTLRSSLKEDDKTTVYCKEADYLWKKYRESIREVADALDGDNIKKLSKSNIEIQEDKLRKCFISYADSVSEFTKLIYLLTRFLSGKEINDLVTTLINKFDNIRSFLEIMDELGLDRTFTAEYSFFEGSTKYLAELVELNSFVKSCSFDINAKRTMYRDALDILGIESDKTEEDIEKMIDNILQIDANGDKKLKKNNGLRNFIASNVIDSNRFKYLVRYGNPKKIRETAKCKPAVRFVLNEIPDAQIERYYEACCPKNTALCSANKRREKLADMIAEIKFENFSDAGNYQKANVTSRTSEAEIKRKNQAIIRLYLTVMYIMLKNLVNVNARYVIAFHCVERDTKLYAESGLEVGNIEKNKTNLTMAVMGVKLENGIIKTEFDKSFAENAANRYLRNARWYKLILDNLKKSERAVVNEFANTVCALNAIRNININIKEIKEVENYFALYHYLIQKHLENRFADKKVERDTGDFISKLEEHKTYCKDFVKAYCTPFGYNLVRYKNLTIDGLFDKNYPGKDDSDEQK
ASSAY COMMENT: crRNA (strand 1, pre-loaded); Mg2+; 40 mM Tris-HCl pH 7.5, 150 mM NaCl, 6 mM MgCl2, 1 mM DTT, 0.1% Tween-20, 0.2 mg/ml BSA; 25 C; 10 min per concentration, then washed
TEST CONDITIONS: tags: His6-TwinStrep-SUMO cleaved; N-terminal SNAP kept (SNAP-Surface 488); label: 3' end held by stalled T7 RNA polymerase
This listing pairs binders with measured Kd.
READOUT NAME: Kd (nM)

BINDER	UNIT SPEC	RECORDED NUMBER
target 2 MT 5'PFS UCU 3'PFS UAA (mixed) RNA 1: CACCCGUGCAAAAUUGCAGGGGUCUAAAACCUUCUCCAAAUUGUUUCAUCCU RNA 2: GGGAAUGGAUCCACAUCUACGAAUUCUCUAGGAUGAAACAAUUUGGAGAAGUAAAGAUCGGAAGAGCACACGU	nM	12.8
target 1 G17U,U19G (mixed) RNA 1: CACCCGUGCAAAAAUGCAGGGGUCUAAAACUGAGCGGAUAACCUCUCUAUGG RNA 2: GGGAAUGGAUCCACAUCUACGAAUUCGUACCAGAUAGAGGUUAUCCGCUCACCGAGAUCGGAAGAGCACACGU	nM	80
target 1 A1G,C6A (mixed) RNA 1: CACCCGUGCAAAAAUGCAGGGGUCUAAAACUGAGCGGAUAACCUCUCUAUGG RNA 2: GGGAAUGGAUCCACAUCUACGAAUUCGUACCAUAGAGAGGUUAUCAGCUCGCCGAGAUCGGAAGAGCACACGU	nM	7
target 1 insU 3' of 17 (mixed) RNA 1: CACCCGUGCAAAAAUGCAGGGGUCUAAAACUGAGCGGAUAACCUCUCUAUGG RNA 2: GGGAAUGGAUCCACAUCUACGAAUUCGUACCAUAGUAGAGGUUAUCCGCUCACCGAGAUCGGAAGAGCACACGU	nM	14.1
